Reference for the values: paper PMC6719172

- Subject Of Test: CpLIP2 lipase (Candida parapsilosis, UniProt Q8NIN8)
- Sequence (Q8NIN8 entry or part of it): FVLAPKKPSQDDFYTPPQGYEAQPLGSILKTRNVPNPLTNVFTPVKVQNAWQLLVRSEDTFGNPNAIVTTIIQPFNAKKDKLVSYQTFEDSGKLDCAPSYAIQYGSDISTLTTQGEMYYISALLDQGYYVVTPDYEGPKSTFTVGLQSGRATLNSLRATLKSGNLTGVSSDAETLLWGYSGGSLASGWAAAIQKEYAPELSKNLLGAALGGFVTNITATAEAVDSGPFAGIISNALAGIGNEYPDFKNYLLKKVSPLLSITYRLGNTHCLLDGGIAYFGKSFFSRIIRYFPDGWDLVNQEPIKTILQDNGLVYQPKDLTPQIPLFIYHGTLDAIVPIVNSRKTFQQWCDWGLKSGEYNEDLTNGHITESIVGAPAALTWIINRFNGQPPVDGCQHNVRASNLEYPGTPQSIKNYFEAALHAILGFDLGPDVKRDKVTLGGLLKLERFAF
- Assay Info: Quenching of CpLIP2 intrinsic tryptophan fluorescence by flavonols (Stern–Volmer, Lehrer, van't Hoff analysis)
- Assay type: binding
- Reported Conditions: 298 K; Lehrer equation
Hi there, I'd appreciate the recorded fa (fraction of accessible W residues to the quencher) for every entry that follows.
Give the figure only, with no unit attached.

Exercise: Tell me fa (fraction of accessible W residues to the quencher) reported for O=c1c(O)c(-c2ccc(O)cc2)oc2cc(O)cc(O)c12
Key: 0.45

Exercise: Tell me fa (fraction of accessible W residues to the quencher) reported for O=c1c(O)c(-c2ccccc2)oc2cc(O)cc(O)c12
Key: 0.37

Exercise: Tell me fa (fraction of accessible W residues to the quencher) reported for O=c1c(O)c(-c2ccc(O)c(O)c2)oc2cc(O)cc(O)c12
Key: 0.54

Exercise: Tell me fa (fraction of accessible W residues to the quencher) reported for O=c1c(O)c(-c2cc(O)c(O)c(O)c2)oc2cc(O)cc(O)c12
Key: 0.34
